- test summary: Blood levels in rats, oral administration of Test Compound for 8 days (toxicology studies)
- Format: in vivo
- details: blood; rat, oral 300 mg/kg/day for 8 days
value type: Cmax at 8 days
Provide the measurement as a number trailed by its unit.

State its Cmax at 8 days for this compound: NC(=O)OC[C@@H](O)c1ccccc1Cl
70.3 µg/mL

###

- test summary: Example 3 study 1: single oral dose pharmacokinetics in healthy men
- Assay type: in vivo, human
- details: male, human, plasma; single oral dose 100-1500 mg, healthy men; read-out: Mean t1/2
value type: half-life

Name the recorded half-life of the compound listed here: NC(=O)OC[C@@H](O)c1ccccc1Cl
11.5 to 13.9 h
